FYI, the data here is from the supplement of paper PMC12669032.

Test system: Roseburia intestinalis
Test: growth AUC relative to DMSO control (median of replicates) (fraction); higher = more growth (less inhibition), active = hit call of the paper
Conditions: 20 µM; 24 h
metricName: growth AUC
Lab note: jot down the number only; don't add units.

Some compounds with known growth AUC results, for comparison:
O=C1NCC[n+]2ccccc21.[Br-] ... 0.992
CCCOC(=O)c1ccc(O)cc1 ... 1
NC(Cn1cncn1)C(=O)O (configuration not stated) ... 1

[ask] For the compound CCOC(=O)C1CC(=O)C(=C(O)C2CC2)C(=O)C1 (configuration not stated) , report growth AUC.
[reply] 1

[ask] For the compound COC(=O)CC(NC(=O)[C@@H](NC(=O)OC(C)C)C(C)C)c1ccc(Cl)cc1 (some centres not stated) , report growth AUC.
[reply] 0.975

[ask] For the compound CCc1cccc(C)c1NC(=O)CS(=O)(=O)[O-].[Na+] , report growth AUC.
[reply] 1

[ask] For the compound CN(C)C(N)=O , report growth AUC.
[reply] 0.996
